tested on: LNCaP tumor-bearing mice; test: Ex vivo biodistribution in LNCaP tumor-bearing mice; parameters: species or system mouse; conditions: 1 h post-injection
measured.quantity: Blood uptake (%ID/g)
Note: unit %ID/g is implicit; provide only the numeric part.

Some solved entries appear below for comparison.
>  <molecule>
COc1ccc(CCCC(=O)NCC(=O)N[C@@H](CCCCNC(=O)CN2CCN(CC(=O)[O-])CCN(CC(=O)[O-])CCN(CC(=O)[O-])CC2)C(=O)NC[C@H]2CC[C@H](C(=O)N[C@@H](Cc3c4ccccc4cc4ccccc34)C(=O)NCCCC[C@H](NC(=O)N[C@@H](CCCC(=O)O)C(=O)O)C(=O)O)CC2)cc1.[177Lu+3] [[^177Lu]Lu-HTK03170]

>  <target.entity>
LNCaP tumor-bearing mice

>  <Blood uptake / %ID/g>
16.9

$$$$
>  <molecule>
COc1ccc(CCCC(=O)NCC(=O)N[C@@H](CCCCNC(=O)CN2CCN(CC(=O)[O-])CCN(CC(=O)[O-])CCN(CC(=O)[O-])CC2)C(=O)NC[C@H]2CC[C@H](C(=O)N[C@@H](Cc3c4ccccc4cc4ccccc34)C(=O)NCCCC[C@H](NC(=O)N[C@@H](CSCC(=O)O)C(=O)O)C(=O)O)CC2)cc1.[177Lu+3] [[^177Lu]Lu-HTK04048]

>  <target.entity>
LNCaP tumor-bearing mice

>  <Blood uptake / %ID/g>
19.8

$$$$
>  <molecule>
O=C([O-])CN1CCN(CC(=O)[O-])CCN(CC(=O)NCC2CCC(C(=O)NC(Cc3c4ccccc4cc4ccccc34)C(=O)NCCCCC(NC(=O)NC(CSCC(=O)O)C(=O)O)C(=O)O)CC2)CCN(CC(=O)[O-])CC1.[68Ga+3] (centres unmarked) [[^68Ga]Ga-HTK03177]

>  <target.entity>
LNCaP tumor-bearing mice

>  <Blood uptake / %ID/g>
0.70

$$$$
>  <molecule>
O=C([O-])CN1CCN(CC(=O)[O-])CCN(CC(=O)NCC2CCC(C(=O)NC(Cc3c4ccccc4cc4ccccc34)C(=O)NCCCCC(NC(=O)NC(COCC(=O)O)C(=O)O)C(=O)O)CC2)CCN(CC(=O)[O-])CC1.[68Ga+3] (centres unmarked) [[^68Ga]Ga-HTK03187]

>  <target.entity>
LNCaP tumor-bearing mice

>  <Blood uptake / %ID/g>
0.67

$$$$

The record that follows has no Blood uptake shown yet.
Value of Blood uptake reported for the molecule COc1ccc(CCCC(=O)NCC(=O)N[C@@H](CCCCNC(=O)CN2CCN(CC(=O)[O-])CCN(CC(=O)[O-])CCN(CC(=O)[O-])CC2)C(=O)NC[C@H]2CC[C@H](C(=O)N[C@@H](Cc3c4ccccc4cc4ccccc34)C(=O)NCCCC[C@H](NC(=O)N[C@@H](COCC(=O)O)C(=O)O)C(=O)O)CC2)cc1.[177Lu+3] [[^177Lu]Lu-HTK04028] is 17.7

###

test system: LNCaP tumor-bearing mice; test: Ex vivo biodistribution in LNCaP tumor-bearing mice; design: species or system mouse; details: 1 h post-injection
measured.quantity: Liver uptake (%ID/g)
Note: unit %ID/g is implicit; provide only the numeric part.

>  <molecule>
O=C([O-])CN1CCN(CC(=O)[O-])CCN(CC(=O)NCC2CCC(C(=O)NC(Cc3c4ccccc4cc4ccccc34)C(=O)NCCCCC(NC(=O)NC(COCC(=O)O)C(=O)O)C(=O)O)CC2)CCN(CC(=O)[O-])CC1.[68Ga+3] (centres unmarked) [[^68Ga]Ga-HTK03187]

>  <measured.quantity>
Liver uptake

>  <measurement.units>
%ID/g

>  <quantitative.result>
0.21

$$$$

The record that follows has no Liver uptake shown yet.
Value of Liver uptake reported for the molecule COc1ccc(CCCC(=O)NCC(=O)N[C@@H](CCCCNC(=O)CN2CCN(CC(=O)[O-])CCN(CC(=O)[O-])CCN(CC(=O)[O-])CC2)C(=O)NC[C@H]2CC[C@H](C(=O)N[C@@H](Cc3c4ccccc4cc4ccccc34)C(=O)NCCCC[C@H](NC(=O)N[C@@H](CCCC(=O)O)C(=O)O)C(=O)O)CC2)cc1.[177Lu+3] [[^177Lu]Lu-HTK03170] is 2.67

###

tested on: LNCaP tumor-bearing mice; test: Ex vivo biodistribution in LNCaP tumor-bearing mice; set-up: species or system mouse; details: 1 h post-injection
measured.quantity: Muscle uptake

Some solved entries appear below for comparison.
>  <molecule>
O=C([O-])CN1CCN(CC(=O)[O-])CCN(CC(=O)NCC2CCC(C(=O)NC(Cc3c4ccccc4cc4ccccc34)C(=O)NCCCCC(NC(=O)NC(COCC(=O)O)C(=O)O)C(=O)O)CC2)CCN(CC(=O)[O-])CC1.[68Ga+3] (centres unmarked) [[^68Ga]Ga-HTK03187]

>  <result>
0.09 ± 0.01 %ID/g

$$$$
>  <molecule>
COc1ccc(CCCC(=O)NCC(=O)N[C@@H](CCCCNC(=O)CN2CCN(CC(=O)[O-])CCN(CC(=O)[O-])CCN(CC(=O)[O-])CC2)C(=O)NC[C@H]2CC[C@H](C(=O)N[C@@H](Cc3c4ccccc4cc4ccccc34)C(=O)NCCCC[C@H](NC(=O)N[C@@H](CCCC(=O)O)C(=O)O)C(=O)O)CC2)cc1.[177Lu+3] [[^177Lu]Lu-HTK03170]

>  <result>
1.15 ± 0.19 %ID/g

$$$$
>  <molecule>
COc1ccc(CCCC(=O)NCC(=O)N[C@@H](CCCCNC(=O)CN2CCN(CC(=O)[O-])CCN(CC(=O)[O-])CCN(CC(=O)[O-])CC2)C(=O)NC[C@H]2CC[C@H](C(=O)N[C@@H](Cc3c4ccccc4cc4ccccc34)C(=O)NCCCC[C@H](NC(=O)N[C@@H](COCC(=O)O)C(=O)O)C(=O)O)CC2)cc1.[177Lu+3] [[^177Lu]Lu-HTK04028]

>  <result>
1.32 ± 0.19 %ID/g

$$$$
>  <molecule>
O=C([O-])CN1CCN(CC(=O)[O-])CCN(CC(=O)NCC2CCC(C(=O)NC(Cc3c4ccccc4cc4ccccc34)C(=O)NCCCCC(NC(=O)NC(CSCC(=O)O)C(=O)O)C(=O)O)CC2)CCN(CC(=O)[O-])CC1.[68Ga+3] (centres unmarked) [[^68Ga]Ga-HTK03177]

>  <result>
0.10 ± 0.01 %ID/g

$$$$

Value of Muscle uptake reported for the molecule COc1ccc(CCCC(=O)NCC(=O)N[C@@H](CCCCNC(=O)CN2CCN(CC(=O)[O-])CCN(CC(=O)[O-])CCN(CC(=O)[O-])CC2)C(=O)NC[C@H]2CC[C@H](C(=O)N[C@@H](Cc3c4ccccc4cc4ccccc34)C(=O)NCCCC[C@H](NC(=O)N[C@@H](CSCC(=O)O)C(=O)O)C(=O)O)CC2)cc1.[177Lu+3] [[^177Lu]Lu-HTK04048] is 1.54 ± 0.20 %ID/g

###

Tested on: LNCaP tumor-bearing mice
Experiment: Ex vivo biodistribution in LNCaP tumor-bearing mice
Design: species or system mouse
Details: 1 h post-injection
Protocol: Imaging, biodistribution and radioligand therapy experiments were performed following previously published procedures using male NOD-scid IL2Rg^null (NSG) or NOD.Cg-Rag1^tm1MomIl2rg^tm1Wjl/SzJ (NRG) mice [10]-[12],[14]-[15]. […] For biodistribution studies, the mice were injected with the radioligand (2-4 MBq) as described above. […] Blood was withdrawn by cardiac puncture, and organs/tissues of interest were collected, weighed and counted using an automatic gamma counter (Tables S4-S7).
Measured Fat uptake, listed per entry.
Note: unit %ID/g is implicit; provide only the numeric part.

Value of Fat uptake reported for the molecule O=C([O-])CN1CCN(CC(=O)[O-])CCN(CC(=O)NCC2CCC(C(=O)NC(Cc3c4ccccc4cc4ccccc34)C(=O)NCCCCC(NC(=O)NC(CSCC(=O)O)C(=O)O)C(=O)O)CC2)CCN(CC(=O)[O-])CC1.[68Ga+3] (centres unmarked) [[^68Ga]Ga-HTK03177] is 0.09

Value of Fat uptake reported for the molecule COc1ccc(CCCC(=O)NCC(=O)N[C@@H](CCCCNC(=O)CN2CCN(CC(=O)[O-])CCN(CC(=O)[O-])CCN(CC(=O)[O-])CC2)C(=O)NC[C@H]2CC[C@H](C(=O)N[C@@H](Cc3c4ccccc4cc4ccccc34)C(=O)NCCCC[C@H](NC(=O)N[C@@H](CSCC(=O)O)C(=O)O)C(=O)O)CC2)cc1.[177Lu+3] [[^177Lu]Lu-HTK04048] is 1.56

Value of Fat uptake reported for the molecule COc1ccc(CCCC(=O)NCC(=O)N[C@@H](CCCCNC(=O)CN2CCN(CC(=O)[O-])CCN(CC(=O)[O-])CCN(CC(=O)[O-])CC2)C(=O)NC[C@H]2CC[C@H](C(=O)N[C@@H](Cc3c4ccccc4cc4ccccc34)C(=O)NCCCC[C@H](NC(=O)N[C@@H](CCCC(=O)O)C(=O)O)C(=O)O)CC2)cc1.[177Lu+3] [[^177Lu]Lu-HTK03170] is 1.38

Value of Fat uptake reported for the molecule COc1ccc(CCCC(=O)NCC(=O)N[C@@H](CCCCNC(=O)CN2CCN(CC(=O)[O-])CCN(CC(=O)[O-])CCN(CC(=O)[O-])CC2)C(=O)NC[C@H]2CC[C@H](C(=O)N[C@@H](Cc3c4ccccc4cc4ccccc34)C(=O)NCCCC[C@H](NC(=O)N[C@@H](COCC(=O)O)C(=O)O)C(=O)O)CC2)cc1.[177Lu+3] [[^177Lu]Lu-HTK04028] is 1.26

Value of Fat uptake reported for the molecule O=C([O-])CN1CCN(CC(=O)[O-])CCN(CC(=O)NCC2CCC(C(=O)NC(Cc3c4ccccc4cc4ccccc34)C(=O)NCCCCC(NC(=O)NC(COCC(=O)O)C(=O)O)C(=O)O)CC2)CCN(CC(=O)[O-])CC1.[68Ga+3] (centres unmarked) [[^68Ga]Ga-HTK03187] is 0.07
